- TARGET_UNDER_TEST: Caspase6 (Homo sapiens)
- Construct: We expressed full-length Caspases-1, 2, 3, 4, 5, 6, 7, and 9 from high copy-number plasmids; HA (N); expressed in transfected cells; host or cells: Saccharomyces cerevisiae (EGY48)
- Sequence (P55212 24-179 limits assumed): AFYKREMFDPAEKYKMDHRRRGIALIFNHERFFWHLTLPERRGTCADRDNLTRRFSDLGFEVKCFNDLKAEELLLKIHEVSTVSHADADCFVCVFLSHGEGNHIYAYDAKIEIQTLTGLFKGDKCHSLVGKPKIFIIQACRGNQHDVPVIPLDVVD
- Sequence (P55212 194-293 limits assumed): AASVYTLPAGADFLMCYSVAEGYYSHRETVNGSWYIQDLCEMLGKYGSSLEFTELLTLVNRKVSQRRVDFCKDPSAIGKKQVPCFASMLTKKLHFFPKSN
- ASSAY_DETAILS: Yeast cleavable-reporter β-galactosidase assay, Caspase-6 (384 well)
- Type: cell-based
- SETUP_CONDITIONS: yeast expressing Caspase6; 384 well β-galactosidase activity assay; read-out: IC50 for z-VAD inhibition of Caspases
pIC50: −log10 of the molar value. Residues, ends and D or L forms follow the SMILES beside them. *: point of attachment. Cbz = O=C(OCc1ccccc1)*; CH2F = FC*

COMPOUND: COC(=O)C[C@H](NC(=O)[C@H](C)NC(=O)[C@@H](NC(=O)OCc1ccccc1)C(C)C)C(=O)CF [zVAD-fmk] (Cbz-Val-Ala-Asp(OMe)-CH2F)
pIC50: 5.17

* * *

- TARGET_UNDER_TEST: Caspase9 activated with Apaf*
- ASSAY_DETAILS: Yeast cleavable-reporter β-galactosidase assay, Apaf*/Caspase-9 (384 well)
- SETUP_CONDITIONS: 384 well β-galactosidase activity assay, read-out: IC50 for z-VAD inhibition of Caspases
Residues, ends and D or L forms follow the SMILES beside them. *: point of attachment. Cbz = O=C(OCc1ccccc1)*; CH2F = FC*

MOLECULE: COC(=O)C[C@H](NC(=O)[C@H](C)NC(=O)[C@@H](NC(=O)OCc1ccccc1)C(C)C)C(=O)CF [zVAD-fmk] (Cbz-Val-Ala-Asp(OMe)-CH2F)
UNITS_OF_MEASURE: µM
IC50: 10.7

* * *

- TARGET_UNDER_TEST: Caspases
- ASSAY_DETAILS: Yeast-based Caspase-dependent lacZ reporter gene assays, 384 well format (summary over assays)
- SETUP_CONDITIONS: range over the yeast Caspase assays, dose-dependent, read-out: concentration required for achieving 50% inhibition of β-galactosidase activity
Residues, ends and D or L forms follow the SMILES beside them. *: point of attachment. Cbz = O=C(OCc1ccccc1)*; CH2F = FC*
MEASURED_ATTRIBUTE: IC50

MOLECULE: COC(=O)C[C@H](NC(=O)[C@H](C)NC(=O)[C@@H](NC(=O)OCc1ccccc1)C(C)C)C(=O)CF [zVAD-fmk] (Cbz-Val-Ala-Asp(OMe)-CH2F)
VALUE_MEASURED: 1 to 10 µM

* * *

- TARGET_UNDER_TEST: Caspase1 activated with Asc
- ASSAY_DETAILS: Yeast cleavable-reporter β-galactosidase assay, Asc/Caspase-1 two-component system (384 well)
- SETUP_CONDITIONS: 384 well β-galactosidase activity assay, read-out: IC50 for z-VAD inhibition of Caspases
pIC50: −log10 of the molar value. Residues, ends and D or L forms follow the SMILES beside them. *: point of attachment. Cbz = O=C(OCc1ccccc1)*; CH2F = FC*
MEASURED_ATTRIBUTE: pIC50

COMPOUND: COC(=O)C[C@H](NC(=O)[C@H](C)NC(=O)[C@@H](NC(=O)OCc1ccccc1)C(C)C)C(=O)CF [zVAD-fmk] (Cbz-Val-Ala-Asp(OMe)-CH2F)
VALUE_MEASURED: 6.00
